Catalogue of binders with associated k2
# Assayed target: Caspase-8 (UniProt Q14790 217-479)
# Sequence (Q14790 217-479 limits assumed): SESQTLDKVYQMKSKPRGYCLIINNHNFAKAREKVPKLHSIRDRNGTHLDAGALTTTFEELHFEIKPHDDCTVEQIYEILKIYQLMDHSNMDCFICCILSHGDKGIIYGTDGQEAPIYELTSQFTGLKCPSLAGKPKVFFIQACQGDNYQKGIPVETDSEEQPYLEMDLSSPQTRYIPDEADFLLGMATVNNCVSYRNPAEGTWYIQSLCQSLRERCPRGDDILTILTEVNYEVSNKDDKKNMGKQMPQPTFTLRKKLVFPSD
# Experiment description: cell-based or functional assay
Numbered stars: 1 amine (or outer) side, 2 acyl side, 3 side chain; on linkers, the order of the positions; unused ones are H or OH. Square brackets hold non-standard residues; d marks the D form. * marks the point of attachment. CH═CH‑CON(CH2Ph)2 = O=C(/C=C/*)N(Cc1ccccc1)Cc1ccccc1; CH═CH‑CON(CH3)CH2CH2Ph = CN(CCc1ccccc1)C(=O)/C=C/*; AAsp = aza-Asp, O=C(N(CC(=O)[*:3])N[*:1])[*:2]; CH═CH‑CON(CH3)CH2Ph = CN(Cc1ccccc1)C(=O)/C=C/*; CH═CH‑COOCH2Ph = O=C(/C=C/*)OCc1ccccc1; Cbz = O=C(OCc1ccccc1)*
Give the number; M⁻¹ s⁻¹ is assumed, so skip it.

Consider the worked cases shown below.
Cbz-LET[AAsp]-{CH═CH‑CONHCH2‑4‑F‑Ph} [Cbz-Leu-Glu-Thr-AAsp-CH═CH-CONHCH2-4-F-Ph]	171000
Cbz-DEV[AAsp]-{CH═CH‑COPh} [Cbz-Asp-Glu-Val-AAsp-CH═CH-COPh]	9720
Cbz-DEV[AAsp]-{CH═CH‑CON(CH2Ph)2} (SMILES CC(C)[C@H](NC(=O)[C@H](CCC(=O)O)NC(=O)[C@H](CC(=O)O)NC(=O)OCc1ccccc1)C(=O)NN(CC(=O)O)C(=O)/C=C/C(=O)N(Cc1ccccc1)Cc1ccccc1) [Cbz-Asp-Glu-Val-AAsp-CH═CH-CON(CH2Ph)2]	8600

Note to self: k2 recorded for Cbz-LET[AAsp]-{CH═CH‑CONHPh} [Cbz-Leu-Glu-Thr-AAsp-CH═CH-CONHPh] was 176000

Note to self: k2 recorded for Cbz-LET[AAsp]-{CH═CH‑CON(CH2Ph)2} (SMILES CC(C)C[C@H](NC(=O)OCc1ccccc1)C(=O)N[C@@H](CCC(=O)O)C(=O)N[C@H](C(=O)NN(CC(=O)O)C(=O)/C=C/C(=O)N(Cc1ccccc1)Cc1ccccc1)[C@@H](C)O) [Cbz-Leu-Glu-Thr-AAsp-CH═CH-CON(CH2Ph)2] was 129000

Note to self: k2 recorded for Cbz-LET[AAsp]-{CH═CH‑CONHCH2CH2Ph} [Cbz-Leu-Glu-Thr-AAsp-CH═CH-CONHCH2CH2Ph] was 121000

Note to self: k2 recorded for Cbz-DEV[AAsp]-{cis‑CH═CH‑COOEt} [Cbz-Asp-Glu-Val-AAsp-CH═CH-COOEt (cis)] was 181000

Note to self: k2 recorded for Cbz-DEV[AAsp]-{CH═CH‑CON(CH3)CH2CH2Ph} (SMILES CC(C)[C@H](NC(=O)[C@H](CCC(=O)O)NC(=O)[C@H](CC(=O)O)NC(=O)OCc1ccccc1)C(=O)NN(CC(=O)O)C(=O)/C=C/C(=O)N(C)CCc1ccccc1) [Cbz-Asp-Glu-Val-AAsp-CH═CH-CON(CH3)CH2CH2Ph] was 31900

Note to self: k2 recorded for Cbz-LET[AAsp]-{CH═CH‑CON(CH3)CH2‑1‑Napth} [Cbz-Leu-Glu-Thr-AAsp-CH═CH-CON(CH3)CH2-1-Napth] was 179000

Note to self: k2 recorded for Cbz-LET[AAsp]-{CH═CH‑CONHCH2Ph} [Cbz-Leu-Glu-Thr-AAsp-CH═CH-CONHCH2Ph] was 70200

Note to self: k2 recorded for Cbz-DEV[AAsp]-{CH═CH‑CON(CH2-1-Napth)2} [Cbz-Asp-Glu-Val-AAsp-CH═CH-CON(CH2-1-Napth)2] was 9460

Note to self: k2 recorded for Cbz-LET[AAsp]-{CH═CH‑CON(CH3)CH2CH2Ph} (SMILES CC(C)C[C@H](NC(=O)OCc1ccccc1)C(=O)N[C@@H](CCC(=O)O)C(=O)N[C@H](C(=O)NN(CC(=O)O)C(=O)/C=C/C(=O)N(C)CCc1ccccc1)[C@@H](C)O) [Cbz-Leu-Glu-Thr-AAsp-CH═CH-CON(CH3)CH2CH2Ph] was 65300

Note to self: k2 recorded for Cbz-LET[AAsp]-{CH═CH‑CO‑tetrahydroquinoline} [Cbz-Leu-Glu-Thr-AAsp-CH═CH-CON-tetrahydroquinoline] was 216000

Note to self: k2 recorded for Cbz-DEV[AAsp]-{CH═CH‑CON(CH3)CH2Ph} (SMILES CC(C)[C@H](NC(=O)[C@H](CCC(=O)O)NC(=O)[C@H](CC(=O)O)NC(=O)OCc1ccccc1)C(=O)NN(CC(=O)O)C(=O)/C=C/C(=O)N(C)Cc1ccccc1) [Cbz-Asp-Glu-Val-AAsp-CH═CH-CON(CH3)CH2Ph] was 90300

Note to self: k2 recorded for Cbz-LET[AAsp]-{CH═CH‑CON(CH3)CH2Ph} (SMILES CC(C)C[C@H](NC(=O)OCc1ccccc1)C(=O)N[C@@H](CCC(=O)O)C(=O)N[C@H](C(=O)NN(CC(=O)O)C(=O)/C=C/C(=O)N(C)Cc1ccccc1)[C@@H](C)O) [Cbz-Leu-Glu-Thr-AAsp-CH═CH-CON(CH3)CH2Ph] was 169000

Note to self: k2 recorded for Cbz-LET[AAsp]-{CH═CH‑COOCH2Ph} (SMILES CC(C)C[C@H](NC(=O)OCc1ccccc1)C(=O)N[C@@H](CCC(=O)O)C(=O)N[C@H](C(=O)NN(CC(=O)O)C(=O)/C=C/C(=O)OCc1ccccc1)[C@@H](C)O) [Cbz-Leu-Glu-Thr-AAsp-CH═CH-COOCH2Ph] was 98400
